B1: library; numbered along this chain (parent)
chain: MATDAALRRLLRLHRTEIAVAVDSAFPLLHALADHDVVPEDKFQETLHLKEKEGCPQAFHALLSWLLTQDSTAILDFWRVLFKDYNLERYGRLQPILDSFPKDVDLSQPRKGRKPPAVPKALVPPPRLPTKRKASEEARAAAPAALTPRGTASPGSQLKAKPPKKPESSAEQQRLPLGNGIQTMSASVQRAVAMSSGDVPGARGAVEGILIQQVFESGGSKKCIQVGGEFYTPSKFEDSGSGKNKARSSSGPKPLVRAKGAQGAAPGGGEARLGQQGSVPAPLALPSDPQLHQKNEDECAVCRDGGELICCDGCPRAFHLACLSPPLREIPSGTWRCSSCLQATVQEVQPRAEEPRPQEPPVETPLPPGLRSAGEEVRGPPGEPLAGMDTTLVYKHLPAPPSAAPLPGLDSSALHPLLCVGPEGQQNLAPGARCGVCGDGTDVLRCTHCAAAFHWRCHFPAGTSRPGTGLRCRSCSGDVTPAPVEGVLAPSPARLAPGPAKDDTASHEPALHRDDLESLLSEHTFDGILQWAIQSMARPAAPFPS

# Variants of: B1
# measurement.description: AIRE transcriptional activation functional score (insulin promoter-GFP; nonsense median 0, synonymous median 1) (normalised score); higher = higher AIRE activity (more reporter activation)
# condition.label: with insulin promoter-GFP reporter in HEK293
Entries and their measured AIRE transcriptional activation functional score follow.
reported.metric: AIRE transcriptional activation functional score

{"columns": ["mutant", "experimental.value"],
 "data": [
  ["T3G", 0.0107],
  ["A6V", 0.772],
  ["M184W", 0.275],
  ["A21P", 0.125],
  ["V104F", 1.15],
  ["T334R", 1.06]
]}

Where these numbers come from: the supplement of paper PMC12667976
